Reference source for all entries: patent US11278534B2

- assay remarks: in vivo
- Set-up: species or system mice strain C57BL/6J
- protocol conditions: male, C57BL/6J, mouse, po, 10 mg/kg
Quick reference: Cmax of the listed items.

Cc1nc(N(C)C(=O)Cc2ccc(-c3ccccn3)cc2)sc1[S@](C)(=N)=O (racemic) [Example 7c] = 4290 ng/mL

Problem: What measured Cmax goes with Cc1nc(N(C)C(=O)Cc2ccc(-c3ccccn3)cc2)sc1[S@@](C)(=N)=O (single isomer, unassigned) [Example 7c(−)] ?
Solution: 6650 ng/mL

Problem: Same question for Cc1nc(N(C)C(=O)Cc2ccc(-c3ccccn3)cc2)sc1[S@](C)(=N)=O (single isomer, unassigned) [Example 7c(+)] please.
Solution: 5700 ng/mL

###

- System: HSV-2
- assay remarks: activity selectivity assay, HSV-2 infected Vero cells
- Assay type: cell-based
- protocol conditions: Human alphaherpesvirus 2
pIC50: −log10 of the molar value.
readout kind: pIC50

Would you please look over these solved cases?
Cc1nc(N(C)C(=O)Cc2ccc(-c3cc(F)ccc3F)cc2)sc1[S@@](=N)(=O)C1CC1 (single isomer, unassigned) [Example 7a(−)] = 6.52 to 7.52
CN(C(=O)Cc1ccc(-c2cc(F)ccc2F)cc1)c1nc(CO)c([S@](C)(=N)=O)s1 (single isomer, unassigned) [Example 10b] = 4.60 to 5.30
Cc1nc(N(C)C(=O)Cc2ccc(-c3ccccn3)cc2)sc1S(=N)(=O)C1CC1 (racemic) = 6.00 to 6.60
Cc1nc(N(C)C(=O)Cc2ccc(-c3ccccn3)cc2)sc1[S@@](=N)(=O)C1CC1 (single isomer, unassigned) [Example 7b(−)] = 6.12 to 6.70
CN(C(=O)Cc1ccc(-c2cc(F)ccc2F)cc1)c1nc(CO)c([S@@](C)(=N)=O)s1 (single isomer, unassigned) [Example 10a] = 5.30 to 6.00

Problem: Query the reported pIC50 for HSV-2; item: Cc1nc(N(C)C(=O)Cc2ccc(-c3cc(F)ccc3F)cc2)sc1S(C)(=N)=O (racemic)
Solution: 7.00 to 7.60

###

Quick reference: pIC50 of the listed items.
- Tested on: HSV-1 ACV resistant
- assay remarks: activity selectivity assay, HSV-1 ACV resistant
- Type: cell-based
- protocol conditions: Human alphaherpesvirus 1
pIC50: −log10 of the molar value.

Would you please look over these solved cases?
Cc1nc(N(C)C(=O)Cc2ccc(-c3cc(F)ccc3F)cc2)sc1S(=N)(=O)C1CC1 (stereo not shown) = 7.00 to 7.52
Cc1nc(N(C)C(=O)Cc2ccc(-c3ccccn3)cc2)sc1[S@@](C)(=N)=O (single isomer, unassigned) [Example 7c(−)] = 6.52 to 7.12

Problem: Query the reported pIC50 for HSV-1 ACV resistant; item: CC(=O)N=[S@](C)(=O)c1sc(N(C)C(=O)Cc2ccc(-c3cc(F)ccc3F)cc2)nc1C
Solution: 4.30 to 5.00

Problem: Same question for Cc1nc(N(C)C(=O)Cc2ccc(-c3ccccn3)cc2)sc1[S@](C)(=N)=O (racemic) [Example 7c] please.
Solution: 6.22 to 6.82

###

Quick reference: IC50 of the listed items.
- Test system: HSV-1 ACV resistant
- assay remarks: activity selectivity assay, HSV-1 ACV resistant
- Format: cell-based
- protocol conditions: Human alphaherpesvirus 1

Problem: What measured IC50 goes with Cc1nc(N(C)C(=O)Cc2ccc(-c3ccccn3)cc2)sc1[S@](C)(=N)=O (single isomer, unassigned) [Example 7c(+)] ?
Solution: 300 to 750 nM

###

- Test system: HSV-2
- assay remarks: activity selectivity assay, HSV-2 infected Vero cells
- Type: cell-based
- protocol conditions: Human alphaherpesvirus 2
readout kind: IC50

Would you please look over these solved cases?
Cc1nc(N(C)C(=O)Cc2ccc(-c3cc(F)ccc3F)cc2)sc1[S@](C)(=N)=O [Example 7(+)] = 30 to 200 nM
Cc1nc(N(C)C(=O)Cc2ccc(-c3ccccn3)cc2)sc1[S@](C)(=N)=O (single isomer, unassigned) [Example 7c(+)] = 500 to 1500 nM
Cc1nc(N(C)C(=O)Cc2ccc(-c3cc(F)ccc3F)cc2)sc1[S@@](C)(=N)=O [Example 7(−)] = 10 to 50 nM
CC(=O)N=[S@](C)(=O)c1sc(N(C)C(=O)Cc2ccc(-c3cc(F)ccc3F)cc2)nc1C = 50000 to 250000 nM
Cc1nc(N(C)C(=O)Cc2ccc(-c3cc(F)ccc3F)cc2)sc1S(=N)(=O)C1CC1 (stereo not drawn) = 50 to 500 nM
Cc1nc(N(C)C(=O)Cc2ccc(-c3ccccn3)cc2)sc1[S@@](C)(=N)=O (single isomer, unassigned) [Example 7c(−)] = 100 to 750 nM
Cc1nc(N(C)C(=O)Cc2ccc(-c3ccccn3)cc2)sc1[S@](=N)(=O)C1CC1 (single isomer, unassigned) [Example 7b(+)] = 2000 to 8000 nM
Cc1nc(N(C)C(=O)Cc2ccc(-c3cc(F)ccc3F)cc2)sc1[S@](=N)(=O)C1CC1 (single isomer, unassigned) [Example 7a(+)] = 500 to 2000 nM

Problem: What measured IC50 goes with Cc1nc(N(C)C(=O)Cc2ccc(-c3ccccn3)cc2)sc1[S@](C)(=N)=O (racemic) [Example 7c] ?
Solution: 200 to 1500 nM

###

Quick reference: pIC50 of the listed items.
- System: HSV-1 ACV resistant
- assay remarks: activity selectivity assay, HSV-1 ACV resistant
- Type: cell-based
- protocol conditions: Human alphaherpesvirus 1
- Experimental: HSV (HSV-1 Walki, HSV-1F, HSV-2 MS, HSV clinical isolates and HSV resistant strains) was cultivated on Vero cells (ATCC CCL-81) under the following conditions: The cells were grown in M199 medium (5% foetal calf serum, 2 mM glutamine, 100 IU/mL penicillin, 100 μg/mL streptomycin) in cell culture bottles at 37° C. and 5% CO2. The cells were splitted twice per week (1:4). […] The virus titre was determined using a plaque assay. […] Using a plaque viewer, the virus titre was determined. […]
pIC50: −log10 of the molar value.

Would you please look over these solved cases?
Cc1nc(N(C)C(=O)Cc2ccc(-c3cc(F)ccc3F)cc2)sc1[S@](C)(=N)=O [Example 7(+)] = 6.70 to 7.52
Cc1nc(N(C)C(=O)Cc2ccc(-c3cc(F)ccc3F)cc2)sc1[S@@](=N)(=O)C1CC1 (single isomer, unassigned) [Example 7a(−)] = 7.30 to 7.70
CN(C(=O)Cc1ccc(-c2cc(F)ccc2F)cc1)c1nc(CO)c([S@](C)(=N)=O)s1 (single isomer, unassigned) [Example 10b] = 5.30 to 6.00

Problem: What measured pIC50 goes with Cc1nc(N(C)C(=O)Cc2ccc(-c3ccccn3)cc2)sc1[S@@](=N)(=O)C1CC1 (single isomer, unassigned) [Example 7b(−)] ?
Solution: 6.60 to 7.12

Problem: Same question for Cc1nc(N(C)C(=O)Cc2ccc(-c3cc(F)ccc3F)cc2)sc1[S@@](C)(=N)=O [Example 7(−)] please.
Solution: 7.30 to 8.00

Problem: Same question for Cc1nc(N(C)C(=O)Cc2ccc(-c3ccccn3)cc2)sc1[S@](=N)(=O)C1CC1 (single isomer, unassigned) [Example 7b(+)] please.
Solution: 5.82 to 6.30

Problem: Same question for Cc1nc(N(C)C(=O)Cc2ccc(-c3ccccn3)cc2)sc1S(=N)(=O)C1CC1 (racemic) please.
Solution: 6.40 to 7.00

Problem: Same question for CN(C(=O)Cc1ccc(-c2cc(F)ccc2F)cc1)c1nc(CO)c([S@@](C)(=N)=O)s1 (single isomer, unassigned) [Example 10a] please.
Solution: 6.60 to 7.30

Problem: Same question for Cc1nc(N(C)C(=O)Cc2ccc(-c3cc(F)ccc3F)cc2)sc1[S@](=N)(=O)C1CC1 (single isomer, unassigned) [Example 7a(+)] please.
Solution: 6.12 to 6.60

Problem: Same question for Cc1nc(N(C)C(=O)Cc2ccc(-c3cc(F)ccc3F)cc2)sc1S(C)(=N)=O (racemic) please.
Solution: 7.00 to 7.60
